Reference for the values: paper PMC2756588

Target: T1, Lsb3, P43603
T1 sequence (P43603 385-451, looked up): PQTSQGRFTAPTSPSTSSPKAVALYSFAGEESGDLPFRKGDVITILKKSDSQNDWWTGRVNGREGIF
Test: SPOT array
Conditions: median of control spots 406
Could you please report measured SPOT intensity for the items listed next?
Answers are plain numbers.

Some solved cases for reference:
PPIPNAPLSPAPAVP = 0
NTMKKRPAPPSLPSL = 12
GKLKHIPRRPYEIER = 0
FYNRTAFQLPGDARV = 2
YYNRQELALPKRMSS = 24
RRRRRPHRIERPLSN = 8
LPMNIQPDLPPRKIM = 941
VAPPPLPNRQLPNLD = 743
KRKRRLPVSEDTNTK = 8
PSPSSSPPPIPKTAN = 0

I'm hoping you can list SPOT intensity for every binder here, please.
1. VNFRRIPTGPDSPPT
2. IFLRISINFPLNYPN
3. KKEKKPPKIPKKVYT
4. PHNPSPFFPPPDFND
5. MARRRLPDRPPNGIG
6. LKHGWKPLRPIKLIS

Result string:
1: 2; 2: 10; 3: 0; 4: 0; 5: 175; 6: 0

I'm hoping you can list SPOT intensity for every binder here, please.
1. MKRSRPSRSIPYTTP
2. VPPVPLPFGIPPFPM
3. LYEAMPPTLPHRDWK
4. NMLSRPRLAKLPSIR
5. LKVTPGRRAPTISKI

Result string:
1
4
0
2
0

I'm hoping you can list SPOT intensity for every binder here, please.
1. QFDLKMPSKPIHNLK
2. FSRRQSMDIPSKNRN
3. TPTSGPPLLPPRNTM
4. FHLNPKRSAVLYDRP

Result string:
1: 9; 2: 22; 3: 345; 4: 0

I'm hoping you can list SPOT intensity for every binder here, please.
1. MFLISPPASPPPEFD
2. MTKTPETSPPKRPMG
3. RFKRHRLEFPFNESE
4. QHQQRQPKRPKRYSL
5. FLIKFTPKFPQSIDH

Result string:
[0, 34, 0, 36, 32]
